Record: compiled pIC50 on MERTK (Homo sapiens) from multiple reports.
pIC50: −log10 of the molar value.

Molecule	pIC50
C[C@@H]1CCCN1C1(C)CCc2ccc(-c3cnc4[nH]nc(-c5ccc(C(N)=O)c(Cl)c5)c4c3)cc2CC1 (some centres unmarked)	> 7.00
C[C@H]1CCCN1C1CCc2ccc(-c3cnc4[nH]nc(-c5ccc(S(C)(=O)=O)cc5)c4c3)cc2CC1 (some centres unmarked)	6.00 to 7.00
Cn1cc(-c2cnc(N)c(C(=O)N[C@@H]3CCN(C(=O)c4ccc(-c5ccc(Oc6ccc(N)cc6)cc5)cc4)C3)c2)cn1	6.00 to 7.00
Cn1cc(-c2cnc(N)c(C(=O)N[C@@H]3CCN(C(=O)c4ccc5cnccc5n4)C3)c2)cn1	< 6.00
Cn1cc(-c2cnc(N)c(C(=O)N[C@@H]3CCN(C(=O)c4ccc(-c5ccc(C#N)cc5)cc4)C3)c2)cn1	6.00 to 7.00
CC(CCOC(F)F)Nc1ncc2c(-c3ccc(CN4CCOCC4)cc3)cc(C3CCC(O)CC3)n2n1 (centres unmarked)	≥ 7.00
CC(C)NC(=O)N1CC[C@@H](NC(=O)c2cc(-c3cnn(C)c3)cnc2N)C1	< 6.00
Cn1cc(-c2cnc(N)c(C(=O)N[C@@H]3CCN(C(=O)Cc4ccc(-c5ccccc5)cc4)C3)c2)cn1	< 6.00
C[C@@H]1CCCN1C1(C)CCc2ccc(-c3cnc4[nH]nc(-c5ccc(C(=O)N6CCCC6)cc5)c4c3)cc2CC1 (some centres unmarked)	< 6.00
COC[C@H](C)Nc1ncc2c(-c3ccnc(Oc4cccnc4)c3)cc([C@H]3CC[C@H](O)CC3)n2n1	≥ 7.00
COC[C@H](C)Nc1ncc2c(-c3cnn(Cc4ccnnc4)c3)cc([C@H]3CC[C@H](O)CC3)n2n1	≥ 7.00
Cn1cc(-c2cnc(N)c(C(=O)N[C@@H]3CCN(C(=O)Oc4ccc(N)c(Cl)c4)C3)c2)cn1	< 6.00
CC[C@H](C)Nc1ncc2c(Cl)ncc([C@H]3CC[C@H](O)CC3)c2n1	≥ 7.00
Cn1cc(-c2cnc(N)c(C(=O)N[C@@H]3CCN(C(=O)c4ccc(F)cc4Cl)C3)c2)cn1	< 6.00
COC[C@H](C)Nc1ncc2c(-c3ccnc([S@](C)(=N)=O)c3)cc([C@H]3CC[C@H](O)CC3)n2n1	≥ 7.00
Cc1nc(-c2cccc(-c3ccc(C(=O)N4CC[C@@H](NC(=O)c5cc(-c6cnn(C)c6)cnc5N)C4)cc3)c2)no1	7.00 to 8.00
Cn1cc(-c2cnc(N)c(C(=O)N[C@@H]3CCN(C(=O)c4ccc(Oc5cccc(N)c5)cc4)C3)c2)cn1	6.00 to 7.00
CNC(=O)C(C)(C)n1cc(-c2cc([C@H]3CC[C@H](O)CC3)n3nc(N[C@@H](C)COC)ncc23)cn1	≥ 7.00
COC[C@H](C)Nc1ncc2c(OC3CCOCC3)ncc(-c3ccc(N)cc3)c2n1	≥ 7.00
COCCN1C(C)(C)CC(Oc2ncc([C@H]3CC[C@H](O)CC3)c3nc(N[C@@H]4CCOC4)ncc23)CC1(C)C	≥ 7.00
Cn1cc(-c2cnc(N)c(C(=O)N[C@@H]3CCN(C(=O)Nc4cccc(-c5cccc(CN)c5)c4)C3)c2)cn1	7.00 to 8.00
CCOc1ccn(-c2ccc(F)cc2)c(=O)c1C(=O)Nc1ccc(Oc2ccnc3cc(OC4COC4)c4c(c23)OCCO4)c(F)c1	≥ 7.30
Cn1cc(-c2cnc(N)c(C(=O)N[C@@H]3CCN(Cc4ccc(-c5ccccc5)cc4)C3)c2)cn1	< 6.00
COC[C@H](C)Nc1ncc2c(-c3cnn(CC(C)(C)O)c3)cc([C@H]3CC[C@H](O)CC3)n2n1	≥ 7.00
Cn1cc(-c2cnc(N)c(C(=O)N[C@@H]3CCN(C(=O)Oc4cc(F)cc(F)c4)C3)c2)cn1	< 6.00
CNC(=O)c1cc(-c2cc([C@H]3CC[C@H](O)CC3)n3nc(N[C@@H](C)COC(F)F)ncc23)cc(C)n1	≥ 7.00
Cn1cc(-c2cnc(N)c(C(=O)N[C@@H]3CCN(Cc4ccc(Cl)c(Cl)c4)C3)c2)cn1	< 6.00
COC[C@H](C)Nc1ncc2c(OC3CCOCC3)ncc([C@@H]3CCCNC3)c2n1	6.00 to 7.00
Cn1cc(-c2cnc(N)c(C(=O)N[C@@H]3CCN(C(=O)Oc4cccc(C#N)c4)C3)c2)cn1	< 6.00
